TARGET_ENTITY: Estrogen receptor (Homo sapiens) (UniProt P03372)
Sequence (P03372 whole entry, looked up): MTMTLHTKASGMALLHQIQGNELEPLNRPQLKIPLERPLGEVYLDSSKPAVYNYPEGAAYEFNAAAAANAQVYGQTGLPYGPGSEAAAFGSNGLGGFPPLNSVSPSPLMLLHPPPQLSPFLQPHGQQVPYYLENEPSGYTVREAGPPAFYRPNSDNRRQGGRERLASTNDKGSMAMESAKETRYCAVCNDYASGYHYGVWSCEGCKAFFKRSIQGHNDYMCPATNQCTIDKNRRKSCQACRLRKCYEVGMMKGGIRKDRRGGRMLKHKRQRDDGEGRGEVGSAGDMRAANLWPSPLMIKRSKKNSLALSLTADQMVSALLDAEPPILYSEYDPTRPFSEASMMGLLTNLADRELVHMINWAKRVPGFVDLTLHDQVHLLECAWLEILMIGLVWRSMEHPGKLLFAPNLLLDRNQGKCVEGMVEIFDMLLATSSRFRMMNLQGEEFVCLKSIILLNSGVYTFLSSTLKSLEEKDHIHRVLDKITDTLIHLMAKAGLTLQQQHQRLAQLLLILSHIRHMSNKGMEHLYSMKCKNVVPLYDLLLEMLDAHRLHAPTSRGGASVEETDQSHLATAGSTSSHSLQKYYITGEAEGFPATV
TEST_NAME: qHTS assay to identify small molecule antagonists of the estrogen receptor alpha (ER-alpha) signaling pathway using the BG1 cell line in the presence of 0.1 nM 17-beta-estradiol (AID 1259244); note: nearly all actives have a fitted effect of over 50% in size
EXPERIMENTAL_CONTEXT: VM7Luc4E2 (BG1) ERE-luciferase, antagonist mode, 0.1 nM E2, 22 h; series mostly up to 92.4 µM
Inconclusive results are not listed. Active and inactive are the calls of the source. Calls come from the whole dose curve; as a rule, active = well fitted inhibition curve with a large enough effect in the repeat runs; inconclusive = weak or mixed curves; inactive = no such curve, though single readings can be large or run the other way.
MEASURED_ATTRIBUTE: outcome

The examples below pair each entry with its known result.
COc1ccc2nc(N)sc2c1 ... inactive
O=S1(=O)CCCO1 ... inactive
COC(=O)CC(=O)OC ... inactive
[Na+] ... inactive

For every item below, please supply its outcome.
1. Cc1ccc(C(C)(C)C)c(O)c1
2. CCCCCCC(C)O (stereo unspecified)
3. O=C(O)CCCC(=O)O
4. Nc1cc(Cl)c(N)c(Cl)c1
5. Cc1ccc(S(=O)(=O)O)cc1C

Response:
1. inactive
2. inactive
3. inactive
4. inactive
5. inactive

For every item below, please supply its outcome.
1. Brc1nc2ccccc2s1
2. c1ccc2cc3ccccc3cc2c1
3. CC1(C)C(C=C(Cl)Cl)C1C(=O)OCc1cccc(Oc2ccccc2)c1 (stereo unspecified)
4. CC(C)=CCO
5. Nc1ccc(O)c(N)c1
6. Nc1cc([N+](=O)[O-])ccc1C(=O)O
7. CNC[C@H](O)c1ccc(O)c(O)c1

Response:
inactive
inactive
inactive
inactive
inactive
inactive
inactive

For every item below, please supply its outcome.
1. OCCNCCO
2. CC(=O)O[C@]1(C(C)=O)CC[C@H]2[C@@H]3C=C(C)C4=CC(=O)CC[C@]4(C)[C@H]3CC[C@@]21C
3. FC(F)(F)C(Cl)Br (stereo unspecified)
4. CC(C)[N+](C)(CCOC(=O)C1c2ccccc2Oc2ccccc21)C(C)C
5. CCO[Si](CCCNC(N)=O)(OCC)OCC

Response:
inactive
inactive
inactive
inactive
inactive

----------
TARGET_ENTITY: Nuclear receptor ROR-gamma (Homo sapiens) (UniProt P51449)
TEST_NAME: qHTS assay to identify small molecule antagonists of the retinoid-related orphan receptor gamma (ROR-gamma) signaling pathway (AID 1159521; note: nearly all actives have a fitted effect of over 50% in size)
EXPERIMENTAL_CONTEXT: Tet-on RORgamma CHO cells, RORE-luciferase, 16 h; series mostly up to 92.4 µM
Records with an inconclusive call do not appear. Active and inactive are the calls of the source. Calls come from the whole dose curve; as a rule, active = well fitted inhibition curve with a large enough effect in the repeat runs; inconclusive = weak or mixed curves, or effect the other way; inactive = no such curve, though single readings can be large or run the other way.
Write down the outcome that applies. Available outcomes: 1 (yes) for active, 0 (no) for inactive

Solved entries:
Cc1ccc(N)c([N+](=O)[O-])c1 ... 0 (no)
Nc1ccc(O)c(N)c1 ... 0 (no)
NC[C@H](O)c1ccc(O)c(O)c1 ... 0 (no)

Prompt: What call does the record list for C=C1C[C@H]2[C@@H]3C=C(C)C4=CC(=O)CC[C@]4(C)[C@H]3CC[C@]2(C)[C@@]1(OC(C)=O)C(C)=O ?
Response: 0 (no)

Prompt: What call does the record list for CCO[Si](CCCNC(N)=O)(OCC)OCC ?
Response: 0 (no)

Prompt: What call does the record list for COCCOCCOCCO ?
Response: 0 (no)

Prompt: What call does the record list for Cc1ccc(C(C)(C)C)c(O)c1 ?
Response: 0 (no)

Prompt: What call does the record list for c1ccc2ncccc2c1 ?
Response: 0 (no)

Prompt: What call does the record list for Cc1ccc(C(C)(C)C)cc1 ?
Response: 0 (no)

Prompt: What call does the record list for OC[C@@H](O)[C@@H](O[C@@H]1O[C@H](CO)[C@H](O)[C@H](O)[C@H]1O)[C@H](O)[C@@H](O)CO ?
Response: 0 (no)

Prompt: What call does the record list for CC(=O)[C@H]1CC[C@H]2[C@@H]3CC=C4C[C@@H](O)CC[C@]4(C)[C@H]3CC[C@]12C ?
Response: 1 (yes)

Prompt: What call does the record list for CC/C=C\C/C=C\C/C=C\CCCCCCCC(=O)O ?
Response: 0 (no)

Data origin: PubChem BioAssay (Tox21)
